Target: (NANP)6 (Plasmodium falciparum)
Experiment: BLI, target on sensor
MEASUREMENT LABEL: Kd (nM)
Give bare numbers, in nM.

1) AB-007038 (antibody, V domains shown) VH: QMQLVESGGGVVQPGRSLRLSCTASGFTFSTYAMHWVRQSPGQGLQWVAVISYHSTNKYYEDSVRGRFTISRDNSKNTLYLQMNSLRAEDTAVYYCARDGYSSSFFDYWGQGTLVTVSS VL: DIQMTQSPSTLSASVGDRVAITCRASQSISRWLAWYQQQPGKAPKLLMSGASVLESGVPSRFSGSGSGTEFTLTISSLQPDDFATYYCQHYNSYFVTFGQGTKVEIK: 1.34
2) AB-007069 (antibody, V domains shown) VH: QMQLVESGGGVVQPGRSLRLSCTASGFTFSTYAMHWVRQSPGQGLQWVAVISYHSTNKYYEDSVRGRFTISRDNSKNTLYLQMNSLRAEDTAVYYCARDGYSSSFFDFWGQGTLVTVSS VL: DIQMTQSPSTLSASVGDRVAITCRASQSISRWLAWYQQQPGKAPKLLMSVASVLESGVPSRFSGSGSGTEFTLTISSLQPDDFATYYCQHYNSYFVTFGQGTKVEIK: 1.33
3) AB-007059 (antibody, V domains shown) VH: QMQLVESGGGVVQPGRSLRLSCTASGFTFSTYAMHWVRQSPGQGLQWVAVISYHSTNKYYEDSVRGRFTISRDNSKNTLYLQMNSLRAEDTAVYYCARDGYSSTFFDFWGQGTLVTVSS VL: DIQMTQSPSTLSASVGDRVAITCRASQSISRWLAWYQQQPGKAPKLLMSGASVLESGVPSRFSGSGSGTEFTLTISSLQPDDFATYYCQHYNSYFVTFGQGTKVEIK: 1.41
4) AB-007039 (antibody, V domains shown) VH: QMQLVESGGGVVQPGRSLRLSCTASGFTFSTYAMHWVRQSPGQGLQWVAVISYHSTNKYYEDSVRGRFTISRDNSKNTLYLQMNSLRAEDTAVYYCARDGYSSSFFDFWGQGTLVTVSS VL: DIQMTQSPSTLSASVGDRVAITCRASQSISRWLAWYQQQPGKAPKLLMSGASVLESGVPSRFSGSGSGTEFTLTISSLQPDDFATYYCQHYNSYSVTFGQGTKVEIK: 1.19

Sample AB-007067 (antibody, V domains shown) VH: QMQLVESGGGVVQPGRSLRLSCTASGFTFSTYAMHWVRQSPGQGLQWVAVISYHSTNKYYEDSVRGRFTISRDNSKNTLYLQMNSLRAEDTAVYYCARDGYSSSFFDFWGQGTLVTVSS VL: DIQMTQSPSTLSASVGDRVAITCRASQSISRWLAWYQQQPGKAPKLLMSSASVLESGVPSRFSGSGSGTEFTLTISSLQPDDFATYYCQHYNSYFVTFGQGTKVEIK — what was its Kd?
0.647
